Data origin, for the record: patent US12509474B2

System: human C1s protein (Homo sapiens, UniProt P09871)
Construct: A104
Sequence (P09871 16-688): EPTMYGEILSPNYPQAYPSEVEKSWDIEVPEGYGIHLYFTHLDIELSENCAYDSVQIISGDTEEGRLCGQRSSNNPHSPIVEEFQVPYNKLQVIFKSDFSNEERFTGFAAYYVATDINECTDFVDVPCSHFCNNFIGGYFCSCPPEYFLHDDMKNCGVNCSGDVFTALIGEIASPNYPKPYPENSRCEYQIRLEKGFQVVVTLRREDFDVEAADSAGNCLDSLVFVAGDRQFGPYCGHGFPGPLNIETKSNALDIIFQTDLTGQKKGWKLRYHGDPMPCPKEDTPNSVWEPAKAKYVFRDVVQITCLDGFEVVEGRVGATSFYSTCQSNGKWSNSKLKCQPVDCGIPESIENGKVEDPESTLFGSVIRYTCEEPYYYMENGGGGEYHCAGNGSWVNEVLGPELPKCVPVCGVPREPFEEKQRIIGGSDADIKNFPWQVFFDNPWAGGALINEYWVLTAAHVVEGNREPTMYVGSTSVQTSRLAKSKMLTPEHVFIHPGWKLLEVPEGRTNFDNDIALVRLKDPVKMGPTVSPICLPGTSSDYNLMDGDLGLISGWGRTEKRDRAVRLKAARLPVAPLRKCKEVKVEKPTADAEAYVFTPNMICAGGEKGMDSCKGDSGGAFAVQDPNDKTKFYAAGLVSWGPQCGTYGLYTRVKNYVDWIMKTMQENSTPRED
Assay info: C1s enzymatic assay (hydrolysis of YLGR-Rh110-dPro)
Assay type: biochemical
Test parameters: substrate YLGR-Rh110-dPro 20 μM, 15 min pre-incubation, 60 min RT, fluorescence, read-out: hC1s pIC50 (converted)
Where a name gives a salt, the structure may show the parent alone.
Parameter: IC50 (nM)

# Molecule, Unit, Observed value
data = [
    ("Nc1cnnc2cc(-c3cc(B(O)O)ccc3OC3CCC3)ccc12", "nM", 0.708),
    ("Nc1cnnc2cc(-c3ccc(C(F)(F)F)c(B(O)O)c3)ccc12", "nM", 5.75),
    ("COc1cc(C(F)F)c(B(O)O)cc1-c1ccc2c(N)nnc(C)c2c1", "nM", 2.69),
    ("COc1ccc(B(O)O)cc1-c1ccc2c(N)ncc(C)c2c1", "nM", 17.4),
]

a = Nc1cnnc2cc(-c3cc(B(O)O)ccc3Oc3nccs3)ccc12 [Example 169, Formic Acid Salt]
b = Nc1cnnc2cc(-c3cc(B(O)O)ccc3OCCC3CCOC3)ccc12 (centres unmarked)
c = Cc1nnc(N)c2ccc(-c3ccc(NC(=O)C(C)C)c(B(O)O)c3)cc12
d = COc1ccc(B(O)O)cc1-c1cnc2c(N)nccc2c1 [Example 130, Formic Acid Salt]
e = CC(C)CC(=O)Nc1ccc(B(O)O)cc1-c1ccc2c(N)cnnc2c1 [Example 64, Formic Acid Salt]
Problem: // smallest IC50 at index 0, largest at the end Lab note: final answer is the ordered label list.
Result: b, a, c, e, d
(b: 0.776 nM, a: 1.45 nM, c: 5.89 nM, e: 15.1 nM, d: 67.6 nM)
